Source: paper PMC11452399

molecular target: human ferritin heavy chain (FTH1) (human, UniProt P02794); assay: ELISA
Sequence (P02794 whole entry): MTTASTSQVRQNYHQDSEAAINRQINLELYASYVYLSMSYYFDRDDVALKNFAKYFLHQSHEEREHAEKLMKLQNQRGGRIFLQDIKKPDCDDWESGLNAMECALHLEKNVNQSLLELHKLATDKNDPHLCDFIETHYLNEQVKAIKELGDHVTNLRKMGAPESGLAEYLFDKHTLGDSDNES
recorded.endpoint: pEC50
Numbers only, as −log10 of the molar value.

Please report the recorded pEC50 for DSFQVIKNSPLSEWLI [GST-Peptide WT (NCOA4 484-499)] .
6.54
